Test system: MS2 coat protein
TEST METHOD NOTES: apparent KD of MS2 coat protein; designed switch direction (-1 OFF switch, 1 ON switch): -1; higher = weaker reporter binding
TEST CONDITIONS: input ligand: none
In this section, each of the sequences is paired with its reported apparent KD of MS2 coat protein.

MONOMER SEQUENCE	apparent KD of MS2 coat protein, nM
GUAUGUGAGAGAGGAUAUCGUGUACAAAGUACACGAGAAGGCUUCACAUGAGGAUCACCCAUGUACCGAGGUGAAACACCUUGA [Omei Exc(NG)1 Bv9] (Eterna round: R96, puzzle: Exclusion NG 1)	423
AAUCCACAUGAGGAUCACCCAUGUGAGGAUAUGAUACUAUGUACUUCGGUACAUAGUAUCAGAAGGCACAUAAA [Ex1-3: 51] (Eterna round: R96, puzzle: Exclusion 1)	27.8
UUCGCGGAAGGAUAUACAUGAGGAUCACCCAUGUGCUUAUGCGCAACAGCUUCGCAGUGUAGAAGGUUCAGAGU [Eternabot (L1) Solution 3] (Eterna round: R97, puzzle: Exclusion 3)	23.4
GUAACAUGCUGGUGAUCAUACAUGAGGAUCACCCAUGUAACAAGCUUUUUGUUCGUCUUAUAAGAUCACCAGCAUGU [Stov1/9-B2] (Eterna round: R97, puzzle: Sensor, turn-off variant 1)	19.8
AGCUAGUGCCGAGGAUAUACAUGAGGAUCACCCAUGUAGGCCAGUCGGUUUCUGACUGGCGAGAUGUAGAAGGCGGCGUUGGCA [JL ENG2 1.51] (Eterna round: R96, puzzle: Exclusion NG 2)	15.6
UGAAUACGUGUUAGGAUAUGGUUUGGUAUUUUAGAUUAGAAGGGACAUGAGGAUCACCCAUGUAAUUGAUAGGU [-13, -10.4 kcal, 30% A] (Eterna round: R97, puzzle: Brourd's mod of Exclusion 4)	41.9
UACGAGUUAGGAUAUGCUUUGGGCUCGCUUUCCUUCGAUAAACUUGAGGAUCACCCAAGUAGAAGGAACUUGUA [Mod 34 - Jieux - Exclusion 2] (Eterna round: R97, puzzle: Exclusion 2)	29.6
CUAUGUGAUUAGGAUAUUACUGGGCUAUCGCCUUGAGAAGGAGUUACAUGAGGAUCACCCAUGUCAACGCGACC [Eternabot (L2) Solution 44] (Eterna round: R97, puzzle: Exclusion 6)	19.1
GGACCCAAAGGAUAUACUUGAGGAUCACCCAAGUAUGUCGCUUGGGCACGGUAAAGGAGUAGAAGGUUGGGAAA [Esri] (Eterna round: R97, puzzle: Exclusion 3)	14.4

====

Test system: MS2 coat protein
TEST METHOD NOTES: apparent KD of MS2 coat protein; higher = weaker reporter binding
TEST CONDITIONS: Eterna round: R107; input ligand: tryptophan 2.4 mM
READOUT: apparent KD of MS2 coat protein (nM)

MONOMER SEQUENCE	RECORDED MEASUREMENT
CAUGGGCUAAGACAUUAUUCGUAUUUUGAUACCAGAAAAUUGGCGUUCCCUUGGCAGCAAUAUACAUGAGGAUCACCCAUGUCCC [theeternabot_exclusion_MS2_Theo_A_23]	58.3
GCAUCCUAGUCGGCCGCCACUGCAUGUAGAUACCUGCUACAUGAACAUGAGGAUCACCCAUGUAGCAGGACCGGGACUAGGAUGC [(Trp1)-(MT)''-(MT)'-(Ms2)-(Trp2)_Design1]	15.5
UUAGAUAUGACAGAUACCAGCGUGUUGUAGAACAUGAGGAUCACCCAUGUAGUGAUCAAGCGCCCUUGGCAGCUGGUAUGUUUGG [7.X]	179

====

Tested on: MS2 coat protein
TEST METHOD NOTES: apparent KD of MS2 coat protein; designed switch direction (-1 OFF switch, 1 ON switch): -1; higher = weaker reporter binding
TEST CONDITIONS: input ligand: microRNA oligo, concentration not stated

MONOMER SEQUENCE	TESTED TARGET	apparent KD of MS2 coat protein [nM]
CACCGUUACAGAGGAUAUGACACAUGAGGAUCACCCAUGUAAUAAAUGAGAAUUUCGAAUGUAACUCAGAAGGCUGGAAUCGGC [Ostricism 77 - Jieux - Exclusion NG 2] (Eterna round: R96, puzzle: Exclusion NG 2)	MS2 coat protein	22.1
UUCCUCACUUCUUUGACUCACAUGAGGAUCACCCAUGUAAUAUAGGAUAUGCAUUUUAUUUCUUUGCAGAAGGAUAUUAGUUUU [JR_ExcNG3_Sub088] (Eterna round: R96, puzzle: Exclusion NG 3)	MS2 coat protein	34.7
AAUGAUUGAUGAGGAUAUUGUGGUGAAACACGACGAGAAGGCAUAUGUCACAUGAGGAUCACCCAUGUGAGCUUUGUGGAUAUA [Ex NG1 #67] (Eterna round: R96, puzzle: Exclusion NG 1)	MS2 coat protein	18.3

====

Test system: MS2 coat protein
TEST METHOD NOTES: apparent KD of MS2 coat protein; designed switch direction (-1 OFF switch, 1 ON switch): -1; higher = weaker reporter binding
TEST CONDITIONS: input ligand: none

MONOMER SEQUENCE	apparent KD of MS2 coat protein, nM
AGUCCGUCAGGAUAUGCAAUUGUGGACAUGAGGAUCACCCAUGUAACGUGGGCAUGGUUUGUAGAAGGGACGUGCA [EX5 #92] (Eterna round: R97, puzzle: Exclusion 5)	95.3
UAUUAACAUGUAGGAUAUCUGCACGUUUAGUGCAGAGAAGGACAUGAGGAUCACCCAUGUAGAUCAUAAUAAUUUAAUUUAAUU [ENG1/6-D2] (Eterna round: R96, puzzle: Exclusion NG 1)	117
CUACUCGUUGUGAGGAUAUCGUUUUCGUCACGGAUCGAGAAGGCACAUGAGGAUCACCCAUGUUUGAUGUGGAU [JR_BMOE4_Sub091] (Eterna round: R96, puzzle: Brourd's mod of Exclusion 4)	38.1
ACUAGCUUUUUGCAUUUUAGGUUUGUUGCUUCGUAUGUAACAUGAGGAUCACCCAUGUAUUACUGAUGUCGUCGUUU [JR_SV3TOV2_Sub090] (Eterna round: R96, puzzle: Sensor v3, turn-off variant 2)	20.3
GUCAGACGAGGAUAUGAUGUCAAAGACAUGAGGAUCACCCAUGUGAUCAAUUAAUUAAGAUCAGAAGGCGUCUGAC [E5/2-A3] (Eterna round: R97, puzzle: Exclusion 5)	222
AAUGCCAGUGUCAGGAUAUCCGGAGGGAAACCUCCGGAGAAGGGACAUGAGGAUCACCCAUGUAUGUAACCUGC [AK-MS2ROC-r4-Bmoexclusion4-7] (Eterna round: R97, puzzle: Brourd's mod of Exclusion 4)	23.6
AGUACCUGAGUACAAUGUAACAUGAGGAUCACCCAUGUAAUUGGGUGAGAACAAGCUCACCGUUCGUCUUAAAUAAA [JL turnoff v1 80] (Eterna round: R96, puzzle: Sensor v2, turn-off variant)	501
ACGCAUUGCCUUUGGUAGUGCGUAACAUGAGGAUCACCCAUGUAGGAUAUGGUAGGCUUUGCUUACCAGAAGGACAUAAUAAAU [Mat - Exclusion NG 3 - Mod of JL - D2] (Eterna round: R96, puzzle: Exclusion NG 3)	28.8
AGAAAAGACCUAGGAUAUACCCAGUGGGUAGAGGGUCAUAAUAAUAAAACAUGAGGAUCACCCAUGUAGAAGGAGGGAAAGAAG [Biriusdibe] (Eterna round: R96, puzzle: Exclusion NG 2)	63.2

====

System: MS2 coat protein
TEST METHOD NOTES: apparent KD of MS2 coat protein; designed switch direction (-1 OFF switch, 1 ON switch): -1; higher = weaker reporter binding
TEST CONDITIONS: input ligand: none

MONOMER SEQUENCE	RESULT UNIT	apparent KD of MS2 coat protein
AAAAGCCUAGGAUAUACUUGAGGAUCACCCAAGUAGGGUCGCAUGGACCCGUCCUCGUGUAGAAGGAGGAAAAG [Orreteceer] (Eterna round: R97, puzzle: Exclusion 3)	nM	46.7
CCCGUCGAUGUAGGAUAUGCCCGGGUCUCCCGGGCAGAAGGACAUGAGGAUCACCCAUGUUGAUGAGGAUCACCCAUCAAUGGG [Double but mutated MS2] (Eterna round: R96, puzzle: Exclusion NG 1)	nM	20.7
GCCGUAAAUGUGAGGAUAUACCUAUGGAAACAUAGGUAGAAGGCACAUGAGGAUCACCCAUGUUCUCAAUCGGC [Mat - Exclusion 4 - Eli Mod - D6] (Eterna round: R97, puzzle: Brourd's mod of Exclusion 4)	nM	195
AUGCCCUGAGGAUAUCUCAUCCCGCACAUGAGGAUCACCCAUGUUCUCCUCCGGGCUCCGAGAGAAGGCAGGCCUA [Armus7] (Eterna round: R97, puzzle: Exclusion 5)	nM	53.5
UGAUCUAGGCGAGGAUAUACAUGAGGAUCACCCAUGUAAUGGUGACAUGCGUACAUGUCACCUAUGUAGAAGGCGCCUAGAUCU [JL ENG2 3.55] (Eterna round: R96, puzzle: Exclusion NG 2)	nM	13
UUAGAUAGGUCAGGAUAUCGAUGAUUGAAUAGUAUGAUUUACAUGAGGAUCACCCAUGUUUUGUACGAGAAGGGACGUUAGAUU [JR_ExcNG2_Sub020] (Eterna round: R96, puzzle: Exclusion NG 2)	nM	28.5
AGUUCACAUGAGGAUCACCCAUGUGAGGAUAUGGUUUCGCUGGCCGUAGCCAGUGGAACCAGAAGGCGCAUGAU [Mat - Exclusion 1 - JL Mod - D14] (Eterna round: R97, puzzle: Exclusion 1)	nM	34.5
AAGUAGUGACAGGAUAUUGUUCAUGAUAUGGAACAAGAAGGGUUAACAUGAGGAUCACCCAUGUAUCCUCCGUG [Eternabot (L2) Solution 14] (Eterna round: R97, puzzle: Exclusion 6)	nM	44.9
UUUAGUUCAGGAUAUGAUGAAUUAAACAUGAGGAUCACCCAUGUAGAUCCUGAAUUAACAUCAGAAGGGAAUAUUU [JL-ex5-4.47 Brourd mod] (Eterna round: R97, puzzle: Exclusion 5)	nM	13.7

Values were extracted from the supplement of paper PMC9170038.
